Consider the following compounds; for each one, report its half-life at 1 μM.
# assay.info: Mouse whole blood stability test
# Format: in vitro ADME
# test.conditions: mouse, blood
Quick note: give the figure in min, leave out the unit.

Entry under review: "CC[C@@]1(O)C(=O)OCc2c1cc1n(c2=O)Cc2c-1nc1cc(F)c(C)c3c1c2[C@@H](NC(=O)COCNC(=O)[C@@H](N)CCC(N)=O)CC3" . Reported half-life at 1 μM? 60

Request the reported half-life at 1 μM associated with "CC[C@@]1(O)C(=O)OCc2c1cc1n(c2=O)Cc2c-1nc1cc(F)c(C)c3c1c2[C@@H](NC(=O)COCNC(=O)[C@@H](N)CCCCN=[N+]=[N-])CC3" 12

Entry CC[C@@]1(O)C(=O)OCc2c1cc1n(c2=O)Cc2c-1nc1cc(F)c(C)c3c1c2[C@@H](NC(=O)COCNC(=O)[C@@H](N)CO)CC3 [P2] : reported half-life at 1 μM = ? 150

For "CC[C@@]1(O)C(=O)OCc2c1cc1n(c2=O)Cc2c-1nc1cc(F)c(C)c3c1c2[C@@H](NC(=O)COCNC(=O)[C@@H](N)CCCCN)CC3" , what is its reported half-life at 1 μM? 24

Would you mind telling me what half-life at 1 μM value was observed for CC[C@@]1(O)C(=O)OCc2c1cc1n(c2=O)Cc2c-1nc1cc(F)c(C)c3c1c2[C@@H](NC(=O)COCNC(=O)CN)CC3 [P1] ? 37.8

Data request, read-out half-life at 1 μM, for "CC[C@@]1(O)C(=O)OCc2c1cc1n(c2=O)Cc2c-1nc1cc(F)c(C)c3c1c2[C@@H](NC(=O)COCNC(=O)CNC(=O)CN)CC3" 174

---

# Tested on: NCI-H1975 cells
# assay.info: anti-Her2 viability assay, NCI-H1975 cells (target negative)
# Assay type: cell-based
# test.conditions: Homo sapiens, NCI-H1975, 144 h, read-out: H1975 IC50 (nM)
measured.endpoint: IC50

State the recorded IC50 for this entry: CC[C@@]1(O)C(=O)OCc2c1cc1n(c2=O)Cc2c-1nc1cc(F)c(C)c3c1c2[C@@H](NC(=O)CO)CC3 [Dxd, reference compound] 3.45 nM

---

# Tested on: JIMT-1
# assay.info: in vitro cell killing activity, JIMT-1 cells (CellTiter Glo viability)
# Assay type: cell-based
# test.conditions: Homo sapiens, JIMT-1, read-out: JIMT-1 IC50 (nM)
measured.endpoint: IC50 (nM)
Give a bare numeral; the unit nM is implied.

Tell me reported IC50 for CC[C@@]1(O)C(=O)OCc2c1cc1n(c2=O)Cc2c-1nc1cc(F)c(C)c3c1c2[C@@H](NC(=O)CO)CC3 [Dxd, reference compound] , tested with JIMT-1. 4.41

---

# assay.info: Solubility (Certificate of Analysis of LP1, physical and chemical properties)
# Assay type: physicochemical
# test.conditions: in water; LP1 13g lot, free base
measured.endpoint: solubility
The reply should read as a number followed by its unit.

Which solubility value is on record for CC[C@@]1(O)C(=O)OCc2c1cc1n(c2=O)Cc2c-1nc1cc(F)c(C)c3c1c2[C@@H](NC(=O)COCNC(=O)CNC(=O)OCc1ccc(NC(=O)[C@H](CCCNC(N)=O)NC(=O)[C@@H](NC(=O)CCOCCOCCOCCOCCNC(=O)COC2C#CCCCCC2)C(C)C)cc1)CC3 (stereo partly shown) ? 26 µM

---

# Test system: SK-BR-3 cells
# assay.info: SKBR3 cell-based anti-proliferation / viability assay (CellTiter-Glo)
# Parameters: species or system human
# test.conditions: SKBR3 target positive cells, 6 days
Exercise: state measured SKBR3 % Kill for each of the molecules provided.
The reply should read as a number followed by its unit.

I'd like to know its SKBR3 % Kill. The molecule in question is CC[C@@]1(O)C(=O)OCc2c1cc1n(c2=O)Cc2c-1nc1cc(F)c(C)c3c1c2[C@@H](NC(=O)CO)CC3 [Dxd, reference compound] 97.0%

Requested read-out: SKBR3 % Kill. Entry: "CC[C@@]1(O)C(=O)OCc2c1cc1n(c2=O)Cc2c-1nc1cc(F)c(C)c3c1c2[C@@H](NC(=O)COCNC(=O)[C@@H](N)CCC(N)=O)CC3" 94.3%

Please give the measured SKBR3 % Kill for this molecule: "CC[C@@]1(O)C(=O)OCc2c1cc1n(c2=O)Cc2c-1nc1cc(F)c(C)c3c1c2[C@@H](NC(=O)COCNC(=O)[C@@H](N)CCC(=O)O)CC3" 96.6%

---

# assay.info: Mouse whole blood stability test
# Type: in vitro ADME
# test.conditions: mouse, blood, 24 h, 1 μM
# Method: In vitro stability of Linker-Prodrug in mouse whole blood Scheme 15. Metabolism of LP1 (M2980) in whole blood. Stock solution of test compound was provided in 100% DMSO. The stock solution for each compound was diluted into 500 μM with mixture of 50% acetonitrile, then diluted into mouse blood to achieve a final concentration of 1.0 μM. […] The samples were mixed well and analyzed with UPLC-MS/MS. […] The % was calculated based on initial 1 uM as 100% and the standard concentration curve.
measured.endpoint: Mouse blood stability % Remaining at 24 h (%)
Please state the figure in %; there is no need to write the unit.

Endpoint output: Mouse blood stability % Remaining at 24 h of CC[C@@]1(O)C(=O)OCc2c1cc1n(c2=O)Cc2c-1nc1cc(F)c(C)c3c1c2[C@@H](NC(=O)COCNC(=O)[C@@H](N)CCC(N)=O)CC3 [P3] . Value? 6.5

Look up Mouse blood stability % Remaining at 24 h for this molecule: CC[C@@]1(O)C(=O)OCc2c1cc1n(c2=O)Cc2c-1nc1cc(F)c(C)c3c1c2[C@@H](NC(=O)COCNC(=O)CN)CC3 [P1] 4.1

What does the record list as Mouse blood stability % Remaining at 24 h for CC[C@@]1(O)C(=O)OCc2c1cc1n(c2=O)Cc2c-1nc1cc(F)c(C)c3c1c2[C@@H](NC(=O)COCNC(=O)[C@@H](N)CCCCN=[N+]=[N-])CC3 [P6] ? 3.3

Could you tell me which Mouse blood stability % Remaining at 24 h is on file for CC[C@@]1(O)C(=O)OCc2c1cc1n(c2=O)Cc2c-1nc1cc(F)c(C)c3c1c2[C@@H](NC(=O)COCNC(=O)CNC(=O)CN)CC3 [P8] ? 46.9

For the molecule shown here, CC[C@@]1(O)C(=O)OCc2c1cc1n(c2=O)Cc2c-1nc1cc(F)c(C)c3c1c2[C@@H](NC(=O)COCNC(=O)[C@@H](N)CCCCN)CC3 [P5] , give the reported Mouse blood stability % Remaining at 24 h. 1.3

Sample CC[C@@]1(O)C(=O)OCc2c1cc1n(c2=O)Cc2c-1nc1cc(F)c(C)c3c1c2[C@@H](NC(=O)COCNC(=O)[C@@H](N)CO)CC3 [P2] — what was its Mouse blood stability % Remaining at 24 h? 34.1

---

# assay.info: Solubility (Certificate of Analysis of LP1, physical and chemical properties)
# Format: physicochemical
# test.conditions: organic solvent or mixture; in DMSO; LP1 13g lot, free base
measured.endpoint: solubility (mM)
The figure you give is taken to be in mM; do not add the unit.

Field request: solubility | item: CC[C@@]1(O)C(=O)OCc2c1cc1n(c2=O)Cc2c-1nc1cc(F)c(C)c3c1c2[C@@H](NC(=O)COCNC(=O)CNC(=O)OCc1ccc(NC(=O)[C@H](CCCNC(N)=O)NC(=O)[C@@H](NC(=O)CCOCCOCCOCCOCCNC(=O)COC2C#CCCCCC2)C(C)C)cc1)CC3 (stereo partly shown) [LP1] 10

---

Assign Human plasma stability % Remaining at 24 h to each entry below.
Number in %, nothing else.

Reported Human plasma stability % Remaining at 24 h for "CC[C@@]1(O)C(=O)OCc2c1cc1n(c2=O)Cc2c-1nc1cc(F)c(C)c3c1c2[C@@H](NC(=O)COCNC(=O)[C@@H](N)CCCCN=[N+]=[N-])CC3" : what is it? 59.0

Any idea what its Human plasma stability % Remaining at 24 h is? The compound is "CC[C@@]1(O)C(=O)OCc2c1cc1n(c2=O)Cc2c-1nc1cc(F)c(C)c3c1c2[C@@H](NC(=O)COCNC(=O)[C@@H](N)CCCCN)CC3" 69.7

What Human plasma stability % Remaining at 24 h value was documented for this compound, CC[C@@]1(O)C(=O)OCc2c1cc1n(c2=O)Cc2c-1nc1cc(F)c(C)c3c1c2[C@@H](NC(=O)COCNC(=O)CN)CC3 [P1] ? 72.4

// Human plasma stability % Remaining at 24 h lookup, key: CC[C@@]1(O)C(=O)OCc2c1cc1n(c2=O)Cc2c-1nc1cc(F)c(C)c3c1c2[C@@H](NC(=O)COCNC(=O)[C@@H](N)CO)CC3 [P2] 80.4

Returns the measured Human plasma stability % Remaining at 24 h for the input compound. Input: "CC[C@@]1(O)C(=O)OCc2c1cc1n(c2=O)Cc2c-1nc1cc(F)c(C)c3c1c2[C@@H](NC(=O)COCNC(=O)[C@@H](N)CCC(N)=O)CC3" 48.9

Request the reported Human plasma stability % Remaining at 24 h associated with "CC[C@@]1(O)C(=O)OCc2c1cc1n(c2=O)Cc2c-1nc1cc(F)c(C)c3c1c2[C@@H](NC(=O)COCNC(=O)CNC(=O)CN)CC3" 86.0
